- Tested on: human IL-6
- procedure details: Inhibition of IL-6 production by stimulated human peripheral blood leukocytes in vitro (ELISA)
- Format: cell-based
- measurement parameters: Homo sapiens, Leukocyte, PBL, zymosan stimulation, compound 10 μM; read-out: Percentage of inhibition of IL-6 production

{"smiles notation": "CC[C@H]1OC(=O)[C@H](C)[C@@H](OC(=O)CCN(CC)CC)[C@H](C)[C@@H](O[C@@H]2O[C@H](C)C[C@H](N(C)C)[C@H]2O)[C@](C)(OC)C[C@@H](C)C(=O)[C@H](C)[C@@H](O)[C@]1(C)O", "target of assay": "human IL-6", "inhibition at 10 µM (%)": 51}
{"smiles notation": "C=CC(=O)O[C@H]1[C@H](C)[C@@H](O[C@@H]2O[C@H](C)C[C@H](N(C)C)[C@H]2O)[C@](C)(OC)C[C@@H](C)C(=O)[C@H](C)[C@@H](O)[C@](C)(O)[C@@H](CC)OC(=O)[C@@H]1C", "target of assay": "human IL-6", "inhibition at 10 µM (%)": 55}
{"smiles notation": "CC[C@H]1OC(=O)[C@H](C)[C@@H](OC(=O)CCN2CCCN(CCCN3CCCC3)CC2)[C@H](C)[C@@H](O[C@@H]2O[C@H](C)C[C@H](N(C)C)[C@H]2O)[C@](C)(OC)C[C@@H](C)C(=O)N[C@H](C)[C@@H](O)[C@]1(C)O", "target of assay": "human IL-6", "inhibition at 10 µM (%)": 33}
{"smiles notation": "CC[C@H]1OC(=O)[C@H](C)[C@@H](OC(=O)CCN2CCN(CCN(CC)CC)CC2)[C@H](C)[C@@H](O[C@@H]2O[C@H](C)C[C@H](N(C)C)[C@H]2O)[C@](C)(OC)C[C@@H](C)C(=O)N[C@H](C)[C@@H](O)[C@]1(C)O", "target of assay": "human IL-6", "inhibition at 10 µM (%)": 18}
